assay-system: Tremfya Fab with a lambda light chain and binding specificity for IL23 (from the monoclonal antibody guselkumab)
assay-explanation: BLI (ForteBio), biotinylated ligand on sensor, 1:1 fit
# Lookup of reported Kd keyed by entry
Form entry: value (nM) — number only.

affinity ligand SEQ ID NO: 89 (designed binder, biotinylated (AviTag system)) MGGGGSAAAGDEAQHWENQGAAYAARGDYDRAIEYYGRALELDPNNAWAWWELGVAYAARGDYDRAIEYYERALELDPDDATTWSRLGHAYAARGDYDRAIEYYERALELDPEDETARYLLEHARRARQGQAGQGGGSGLNDIFEAQKIEWHECHHHHHH : 8
affinity ligand SEQ ID NO: 88 (designed binder, biotinylated (AviTag system)) MGGGGSAAAGDEAQCWENQGAAYAARGDYDRAIEYYERALELDPNNAWAWWELGVAYAARGDYDRAIEYYERALELDPDDATAWSRLGHAYAARGDYDRAIEYYERALELDPEDETARYLLEHARRARQGQAGQGGGSGLNDIFEAQKIEWHECHHHHHH : 10
affinity ligand SEQ ID NO: 85 (designed binder, biotinylated (AviTag system)) MGGGGSAAAGDEAERWDYLGAAYAARGDYDRAIEYYQRALELDPNNAWAWWDLGLAYAARGDYDRAIEYYQRALELDPNNAVAWFRLGWAYAARGDYDRAIEYYQRALELDPNNELARSELENARRARRGQAGQGGGSGLNDIFEAQKIEWHECHHHHHH : 26

// Input: affinity ligand SEQ ID NO: 87 (designed binder, biotinylated (AviTag system)) MGGGGSAAAGDEAQHWENQGAAYAARGDYDRAIEYYERALELDPNNAWAWWELGVAYAARGDYDRAIEYYERALELDPDDATVWSRLGHAYAARGDYDRAIEYYERALELDPEDETARYLLEHARRARQGQAGQGGGSGLNDIFEAQKIEWHECHHHHHH . Output its Kd only.
10

// Input: affinity ligand SEQ ID NO: 82 (designed binder, biotinylated (AviTag system)) MGGGGSAAAGDEAGRWYDLGAAYAARGDYDRAIEYYQRALELDPNNAWAWWELGVAYAARGDYDRAIEYYQRALELDPNNAVAWARLGIAYAARGDYDRAIEYYQRALELDPNNEVARDALEYARRARRGQAGQGGGSGLNDIFEAQKIEWHECHHHHHH . Output its Kd only.
6

// Input: affinity ligand SEQ ID NO: 84 (designed binder, biotinylated (AviTag system)) MGGGGSAAAGDEGGRWEGQGAAYAARGDYDRAIEYYERALELDPNNAWAWWDLGVAYAARGDYDRAIEYYERALELDPDDATAWSRLGHAYAARGDYDRAIEYYERALELDPEDETARYLLEHARRARQGQAGQGGGSGLNDIFEAQKIEWHECHHHHHH . Output its Kd only.
18

// Input: affinity ligand SEQ ID NO: 83 (designed binder, biotinylated (AviTag system)) MGGGGSAAAGDEADRWADLGAAYAARGDYDRAIEYYQRALELDPNNAWAWWDLGVAYAARGDYDRAIEYYQRALELDPNNAVAWRRLGHAYAARGDYDRAIEYYQRALELDPNNELAREQLGRARRARRGQAGQGGGSGLNDIFEAQKIEWHECHHHHHH . Output its Kd only.
8
